tested on: Drosophila larvae expressing wild-type TDP-43 in motor neurons; experiment: Drug screen: rescue of lethality caused by wild-type TDP-43 expression in motor neurons (D42 Gal4); assay type: in vivo; conditions: transgene WT2; 50 μM in fly food
Structures can show the parent of a compound that is named as a salt.
value_type: Preliminary rescue result: adults with normal wings (Adult Normal Wings Adults)

| molecule | result_number |
| --- | --- |
| O=P(O)(O)C(Cl)(Cl)P(=O)(O)O [Clodronate] | 3 |
| O=C(COc1ccc(Cl)cc1)N1CCN(Cc2ccc3c(c2)OCO3)CC1 [Fipexide Hydrochloride] | 1 |
| NC1CCN(c2nc3c(cc2F)c(=O)c(C(=O)O)cn3-c2ccc(F)cc2F)C1 (stereo not drawn) [Tosufloxacin Hydrochloride] | 3 |
| CCCc1nc(C)c2c(=O)[nH]c(-c3cc(S(=O)(=O)N4CCN(CC)CC4)ccc3OCC)nn12 [Vardenafil] | 3 |
| O=C1NCCN1c1ncc([N+](=O)[O-])s1 [Niridazole] | 3 |
| Cc1cc(-c2ccccc2)nnc1NCCN1CCOCC1 [Minaprine Dihydrochloride] | 1 |
